Biological target: human recombinant PFKFB4 (Homo sapiens)
Sequence (Q16877 whole entry): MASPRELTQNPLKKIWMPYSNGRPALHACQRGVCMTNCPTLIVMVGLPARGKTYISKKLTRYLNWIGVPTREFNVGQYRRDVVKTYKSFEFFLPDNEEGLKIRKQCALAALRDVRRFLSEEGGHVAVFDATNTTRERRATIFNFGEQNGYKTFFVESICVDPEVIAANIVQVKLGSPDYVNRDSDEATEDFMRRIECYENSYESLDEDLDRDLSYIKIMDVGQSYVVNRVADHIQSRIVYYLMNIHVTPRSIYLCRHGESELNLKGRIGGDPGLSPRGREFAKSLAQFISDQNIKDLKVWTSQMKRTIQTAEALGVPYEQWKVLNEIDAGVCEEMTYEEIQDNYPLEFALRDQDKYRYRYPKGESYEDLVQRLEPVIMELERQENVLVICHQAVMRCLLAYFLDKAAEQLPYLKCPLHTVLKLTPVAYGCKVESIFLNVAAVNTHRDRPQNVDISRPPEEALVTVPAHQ
Assay: In vitro kinase assay with purified recombinant human PFKFB4
Conditions: Lineweaver-Burk analyses, F6P as substrate; read-out: Ki for 5MPN inhibition
observed_property: Ki
Could you kindly put the unit after your number?

## Task For the molecule shown here, COc1cccc2c(NCCCCCO[N+](=O)[O-])ccnc12 , give the reported Ki.
## Result 8.6 µM

---

Assay: Pharmacokinetic profile after IV and oral administration
Format: in vivo
Conditions: mouse, iv; I.V., female C57BL/6 mice, plasma
observed_property: clearance (mL/min/kg)
Give just the numeric value; mL/min/kg need not be written.

## Task For the molecule shown here, COc1cccc2c(NCCCCCO[N+](=O)[O-])ccnc12 , give the reported clearance.
## Result 291

---

Assay: Pharmacokinetic profile after IV and oral administration
Assay type: in vivo
Conditions: mouse, po; P.O, female C57BL/6 mice, plasma
Description: The pharmacokinetic profile was determined in female C57BL/6 mice (Charles River Laboratories) following IV and oral administration of 5MPN. […] Eight time points (n=3 per time point) were used to determine indicated PK parameters calculated using WinNonLin v5.0. Plasma samples were extracted using acetonitrile and analyzed by LC/MS-MS using a PhenomexSynergi Polar-RP 4micron 50×2.0 mm column eluted with a biphasic mobile phase (0.5% formic acid in acetonitrile and water).
observed_property: half-life (h)
Give just the numeric value; h need not be written.

## Task For the compound shown here, COc1cccc2c(NCCCCCO[N+](=O)[O-])ccnc12 , give the reported half-life.
## Result 1.67
